B1: Osa-1-4 twister ribozyme (parent)
chain: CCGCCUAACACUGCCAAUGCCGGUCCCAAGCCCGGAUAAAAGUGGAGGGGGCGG

# Variants of: B1
# experimental-protocol: self-cleavage, relative activity (ratio to wild type); higher = more cleavage; co-transcriptional
Kindly state self-cleavage for each of the entries shown.

GET /value?item= CCGCCUAACACUGCCAAUGCCGGUCCCAAACCGGGAUAAAAGUGGAGGGGGCGG &field=self-cleavage returns 0.02

GET /value?item= CCGCCUCACACUGCCAAUGCCGGUCCCAAGCCCGGAUAAAAGUGGAGGCGGCGG &field=self-cleavage returns 0.01

GET /value?item= CCGCCUCACACUGCCAAUGCCGGUCCCAAGCCCGGAUAAAACUGGAGGGGGCGG &field=self-cleavage returns 0.03

GET /value?item= CCGCCUAACACUGCGAAUGCCGGUCCCAAGCCCGGAUAAAAGUGGAUGGGGCGG &field=self-cleavage returns 0.09

GET /value?item= CCGCCUAACACUGCCAAUGCCGGUCCCAAGCCCGGAUAAAAGUCGAGGGGUCGG &field=self-cleavage returns 0.16

GET /value?item= CCGCCUGACACUGCCAAUGCCGGUCCCAAGCCCGGAUAAAAGUGGAGGGGGCAG &field=self-cleavage returns 0.16

GET /value?item= CCGCCUAACACUGUUAAUGCCGGUCCCAAGCCCGGAUAAAAGUGGAGGGGGCGG &field=self-cleavage returns 0.09

GET /value?item= CCGCCUAACACUGCCAAUGCCGGCCCCAAGCCCGGAUAAAAGAGGAGGGGGCGG &field=self-cleavage returns 0.08

GET /value?item= CCGCCUAACACUGCCACUGCCGGUCCCAAGCCCGGAUAAAAGUGGAGGGGGGGG &field=self-cleavage returns 0.9

GET /value?item= CCGCCUAACACUGCCAAUUCCGGUCCCAAGCCCGGAUAAAAGUGGAGGGGGGGG &field=self-cleavage returns 0.27

GET /value?item= CCGCCUAACACUGCCUAUGCCGGUCCCAAGCCCGGGUAAAAGUGGAGGGGGCGG &field=self-cleavage returns 0.97

GET /value?item= CCGCCUAACACUGCCAAUGCCGGUCCAAAGCCCGGACAAAAGUGGAGGGGGCGG &field=self-cleavage returns 0.32

GET /value?item= CCGCCUAACCCUGCCAAUGCAGGUCCCAAGCCCGGAUAAAAGUGGAGGGGGCGG &field=self-cleavage returns 0.04

GET /value?item= CCGCCUAACACGGCCAAUGCCGGUCCCAAGCCCGGAUAAAAGUGGAGAGGGCGG &field=self-cleavage returns 0.04

GET /value?item= CCGCCUAACACUGCCAAUGCCGGACCCAAGCCCGGGUAAAAGUGGAGGGGGCGG &field=self-cleavage returns 0.52

GET /value?item= CCGCCUAACACUGCCAAUUCGGGUCCCAAGCCCGGAUAAAAGUGGAGGGGGCGG &field=self-cleavage returns 0.03

GET /value?item= CCGCCUAACACUGCCAAUGCCGGUCCCAAGCCCGGAUAAAAGGGAAGGGGGCGG &field=self-cleavage returns 0.06

GET /value?item= CCGCCUAACACUGCCAAUGCCGGUCCCAAGCCCGGAUAAAACUGGAAGGGGCGG &field=self-cleavage returns 0.06

GET /value?item= CCGCCUAACCCUGCCAAUGCCGGUCCCAAGCCCGGAUAAAUGUGGAGGGGGCGG &field=self-cleavage returns 0.06

GET /value?item= CCGCCUAACACUGCCAAUGCCGGUCCCAGGCCCGGAUAAAAGUGGACGGGGCGG &field=self-cleavage returns 0.03

GET /value?item= CCGCCUAACACUGCCAAUGCCGGUCCCAAGCCCGGAUACAAGUGGAGGCGGCGG &field=self-cleavage returns 0.06

GET /value?item= CCGCCUAACAAUGCCAAUGCCGGUCCCAAGCCCGGAUACAAGUGGAGGGGGCGG &field=self-cleavage returns 0.26

GET /value?item= CCGCCUAACACUGCCAAUGCCGGUCCCAAGCCCGGAUAACAGUGGAGGGGGUGG &field=self-cleavage returns 0.1

GET /value?item= CCGCCUAACACUGCCAUCGCCGGUCCCAAGCCCGGAUAAAAGUGGAGGGGGCGG &field=self-cleavage returns 0.9

GET /value?item= CCGCCUAACACUGACAAUGCCGGUCCCAAGUCCGGAUAAAAGUGGAGGGGGCGG &field=self-cleavage returns 0.04

GET /value?item= CCGCCUAACACUGCCAAUGCCGGUCCCAAGCCCGGAUAAAAGAGGAGGAGGCGG &field=self-cleavage returns 0.08

GET /value?item= CCGCCUAACACUGCCAAUGCCGGUCCCAAACCCGGAUAAAAGUGGAGGGCGCGG &field=self-cleavage returns 0.04

GET /value?item= CCGCCUAACACUGCCAAUGCCGGUCCCAAGCCCUGAUAUAAGUGGAGGGGGCGG &field=self-cleavage returns 0.53

GET /value?item= CCGCCUAACACUGCCAAUGCCGGUCCCAACCCCGUAUAAAAGUGGAGGGGGCGG &field=self-cleavage returns 0.04

GET /value?item= CCGCCUAACACUGCCAAUGCCGUUCCGAAGCCCGGAUAAAAGUGGAGGGGGCGG &field=self-cleavage returns 0.02

GET /value?item= CCGCCUAACACUGCCAAUGCCGGUCCGAAGCCGGGAUAAAAGUGGAGGGGGCGG &field=self-cleavage returns 0.05

GET /value?item= CCGCCUUACCCUGCCAAUGCCGGUCCCAAGCCCGGAUAAAAGUGGAGGGGGCGG &field=self-cleavage returns 0.06

GET /value?item= CCGCCUAACACUGUCUAUGCCGGUCCCAAGCCCGGAUAAAAGUGGAGGGGGCGG &field=self-cleavage returns 0.3

GET /value?item= CCGCCUAAUACUGCCAAUGCCGGUCCCAAGCCCGGAUAAAAGUGGAUGGGGCGG &field=self-cleavage returns 0.06

GET /value?item= CCGCCUAACACUGCCAAUGCCGGUCCCAAGCCCGGAUAAAAGUGGAAGGGGCAG &field=self-cleavage returns 0.13

GET /value?item= CCGCCUACCACUGCCAUUGCCGGUCCCAAGCCCGGAUAAAAGUGGAGGGGGCGG &field=self-cleavage returns 0.11

GET /value?item= CCGCCUAACACUGCCAUUGCCGGUCCCAAGCCCGGAUAAGAGUGGAGGGGGCGG &field=self-cleavage returns 0.93

GET /value?item= CCGCCUAACACUGCCAAUGUCGGUCCCAACCCCGGAUAAAAGUGGAGGGGGCGG &field=self-cleavage returns 0.06

GET /value?item= CCGCCUAACACGGCCAAUGCCGGUCCCAAGCCCGGAUAAAAGUGGAGUGGGCGG &field=self-cleavage returns 0.05

GET /value?item= CCGCCUUACACUGCCAAUGCCGGUCCCAAGCCCCGAUAAAAGUGGAGGGGGCGG &field=self-cleavage returns 0.1

GET /value?item= CCGCCUAACCCUGCCAAUGCCGGUCCCUAGCCCGGAUAAAAGUGGAGGGGGCGG &field=self-cleavage returns 0.05

GET /value?item= CCGCCUAACACUGCCAAUGCCGGUACCAAGCCCGGAUAAAAGUGGAAGGGGCGG &field=self-cleavage returns 0.04

GET /value?item= CCGCCUAACACUGCCAAUGCCGGUCACAAGCCCGGAGAAAAGUGGAGGGGGCGG &field=self-cleavage returns 0.07

GET /value?item= CCGCCUAACACUGCCAAUGCCGGUCUCAAGCCCGGAUAAACGUGGAGGGGGCGG &field=self-cleavage returns 0.8

GET /value?item= CCGCCUAACACUGCCAAUGCCGGUCCCAAGGCCGGAUAAAAGGGGAGGGGGCGG &field=self-cleavage returns 0.09

GET /value?item= CCGCCUAACACCGCCAAUGCCGGUCCCAAGCCCGGAUAAAAGUGGAGGGGGCGU &field=self-cleavage returns 0.67
